The entries below come with measured Kd values attached.
target-or-system: T1, EsCas13d, nuclease-dead (Eubacterium siraeum, UniProt B0MS50, R295A;H300A;R849A;H854A)
T1 sequence: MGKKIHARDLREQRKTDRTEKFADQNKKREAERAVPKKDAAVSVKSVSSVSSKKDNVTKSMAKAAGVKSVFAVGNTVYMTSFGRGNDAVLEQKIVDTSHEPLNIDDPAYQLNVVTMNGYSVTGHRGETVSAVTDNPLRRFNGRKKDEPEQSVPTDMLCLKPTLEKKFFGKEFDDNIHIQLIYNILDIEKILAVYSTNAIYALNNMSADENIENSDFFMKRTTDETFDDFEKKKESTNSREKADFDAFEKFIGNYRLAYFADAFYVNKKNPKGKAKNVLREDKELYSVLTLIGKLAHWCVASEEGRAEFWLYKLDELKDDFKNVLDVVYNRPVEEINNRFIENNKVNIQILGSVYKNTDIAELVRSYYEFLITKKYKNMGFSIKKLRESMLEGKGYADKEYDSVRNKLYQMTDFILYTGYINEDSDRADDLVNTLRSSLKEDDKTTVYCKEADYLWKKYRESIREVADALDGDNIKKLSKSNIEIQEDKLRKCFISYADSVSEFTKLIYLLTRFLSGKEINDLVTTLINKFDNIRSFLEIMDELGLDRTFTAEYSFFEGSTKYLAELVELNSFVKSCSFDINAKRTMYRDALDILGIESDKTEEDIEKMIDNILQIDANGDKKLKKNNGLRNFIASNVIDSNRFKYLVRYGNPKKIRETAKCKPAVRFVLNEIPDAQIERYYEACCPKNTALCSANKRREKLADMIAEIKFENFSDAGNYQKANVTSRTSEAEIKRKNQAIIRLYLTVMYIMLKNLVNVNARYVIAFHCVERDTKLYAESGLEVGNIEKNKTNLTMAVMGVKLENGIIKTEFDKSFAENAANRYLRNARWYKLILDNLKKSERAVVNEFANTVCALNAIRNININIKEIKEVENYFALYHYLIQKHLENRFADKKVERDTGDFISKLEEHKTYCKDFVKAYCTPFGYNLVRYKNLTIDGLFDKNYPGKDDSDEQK
test-summary: crRNA (strand 1, pre-loaded); Mg2+; 40 mM Tris-HCl pH 7.5, 150 mM NaCl, 6 mM MgCl2, 1 mM DTT, 0.1% Tween-20, 0.2 mg/ml BSA; 25 C; 10 min per concentration, then washed
condition-notes: tags: His6-TwinStrep-SUMO cleaved; N-terminal SNAP kept (SNAP-Surface 488); label: 3' end held by stalled T7 RNA polymerase

{"binder": "target 2 MT 5'PFS GAG 3'PFS AGA (mixed) RNA 1: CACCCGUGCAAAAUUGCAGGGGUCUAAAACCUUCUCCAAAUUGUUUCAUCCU RNA 2: GGGAAUGGAUCCACAUCUACGAAUUCGAGAGGAUGAAACAAUUUGGAGAAGAGAAGAUCGGAAGAGCACACGU", "Kd / nM": 4.9}
{"binder": "target 1 U3G,G13A (mixed) RNA 1: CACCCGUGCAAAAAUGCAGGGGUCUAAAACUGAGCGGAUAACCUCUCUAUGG RNA 2: GGGAAUGGAUCCACAUCUACGAAUUCGUACCAUAGAGAAGUUAUCCGCGCACCGAGAUCGGAAGAGCACACGU", "Kd / nM": 5.4}
{"binder": "target 1 insA 3' of 13,insC 3' of 9 (mixed) RNA 1: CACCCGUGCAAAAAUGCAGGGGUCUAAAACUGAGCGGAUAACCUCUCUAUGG RNA 2: GGGAAUGGAUCCACAUCUACGAAUUCGUACCAUAGAGAGAGUUACUCCGCUCACCGAGAUCGGAAGAGCACACGU", "Kd / nM": 8}
{"binder": "target 2 MT 5'PFS GUG 3'PFS AGA (mixed) RNA 1: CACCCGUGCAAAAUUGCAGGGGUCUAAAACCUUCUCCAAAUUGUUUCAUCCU RNA 2: GGGAAUGGAUCCACAUCUACGAAUUCGUGAGGAUGAAACAAUUUGGAGAAGAGAAGAUCGGAAGAGCACACGU", "Kd / nM": 10.3}
{"binder": "target 2 MT 5'PFS CAU 3'PFS CCC (mixed) RNA 1: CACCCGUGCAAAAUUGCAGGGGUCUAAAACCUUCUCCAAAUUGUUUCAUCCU RNA 2: GGGAAUGGAUCCACAUCUACGAAUUCCAUAGGAUGAAACAAUUUGGAGAAGCCCAGAUCGGAAGAGCACACGU", "Kd / nM": 16}
{"binder": "target 3 insA 3' of 6,insC 3' of 5 (mixed) RNA 1: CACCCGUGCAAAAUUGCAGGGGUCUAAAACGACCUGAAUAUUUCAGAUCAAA RNA 2: GGGAAUGGAUCCACAUCUACGAAUUCGUUUUUGAUCUGAAAUAUUCAACGGUCUGCAGAUCGGAAGAGCACACGU", "Kd / nM": 7.3}
{"binder": "target 1 G5C,G17A (mixed) RNA 1: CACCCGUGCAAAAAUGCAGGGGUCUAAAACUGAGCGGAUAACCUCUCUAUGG RNA 2: GGGAAUGGAUCCACAUCUACGAAUUCGUACCAUAAAGAGGUUAUCCCCUCACCGAGAUCGGAAGAGCACACGU", "Kd / nM": 79}

These measurements were taken from paper PMC10786891.
